For each entry below, report its ROS assay: superoxide anion (O2^•−) value.
test: ROS assay for photoreactivity (singlet oxygen and superoxide anion generation); assay type: physicochemical; details: 200 µM final concentration; mean ± SEM, n = 2; cut-off O2^•− ≥ 20 = photoreactive
Numbers only.

                                   molecule                              readout  value
0  OC[C@H]1O[C@H](Oc2ccc(O)cc2)[C@H](O)[C@@H](O)[C@@H]1O [ABT, α-arbutin]  ROS assay: superoxide anion (O2^•−)      0
1  O=C1O[C@H]([C@@H](O)CO)C(O)=C1O[C@H]1O[C@H](CO)[C@@H](O)[C@H](O)[C@H]1O [AA-2G, ascorbyl glucoside]  ROS assay: superoxide anion (O2^•−)      1
2  CCCCc1ccc(O)cc1O [4BR, 4-butylresorcinol]  ROS assay: superoxide anion (O2^•−)     13

# get_value(readout='ROS assay: superoxide anion (O2^•−)', item= O=C1O[C@H]([C@@H](O)CO)C(O)=C1O [AA, ascorbic acid, reference compound] )
26

---

For each entry below, report its ROS assay: singlet oxygen (^1O2) value.
test: ROS assay for photoreactivity (singlet oxygen and superoxide anion generation); type: physicochemical; settings: 200 µM final concentration; mean ± SEM, n = 2; cut-off ^1O2 ≥ 25 = photoreactive
Numbers only.

>>> df
                                   molecule                           readout  value
0  O=C1O[C@H]([C@@H](O)CO)C(O)=C1O[C@H]1O[C@H](CO)[C@@H](O)[C@H](O)[C@H]1O [AA-2G, ascorbyl glucoside]  ROS assay: singlet oxygen (^1O2)      1

Would you mind listing ROS assay: singlet oxygen (^1O2) for each of the following molecules?
1. O=C1O[C@H]([C@@H](O)CO)C(O)=C1O [AA, ascorbic acid, reference compound]
2. CCCCc1ccc(O)cc1O
3. OC[C@H]1O[C@H](Oc2ccc(O)cc2)[C@H](O)[C@@H](O)[C@@H]1O

1. 671
2. 1
3. 19

---

assay: UV-visible spectral analysis, molar extinction coefficient (MEC); format: physicochemical; conditions: at 290 nm, 10 µg mL^−1 in methanol or 20 mM NaPB pH 7.4, 10 mm path length
Rule: Absorbance (10 µg mL^−1) under 0.2 gives N, otherwise Y.

Examples with answers:
                                   compound  group
0  NC[C@H]1CC[C@H](C(=O)O)CC1 [TA, tranexamic acid, reference compound]      N
1    C=C[C@@](C)(/C=C/c1ccc(O)cc1)CCC=C(C)C      Y

Can O=C1O[C@H]([C@@H](O)CO)C(O)=C1O[C@H]1O[C@H](CO)[C@@H](O)[C@H](O)[C@H]1O [AA-2G, ascorbyl glucoside] be said to have Absorbance (10 µg mL^−1) at or above 0.2?
N

Can O=C1O[C@H]([C@@H](O)CO)C(O)=C1O [AA, ascorbic acid, reference compound] be said to have Absorbance (10 µg mL^−1) at or above 0.2?
N

Can OC[C@H]1O[C@H](Oc2ccc(O)cc2)[C@H](O)[C@@H](O)[C@@H]1O be said to have Absorbance (10 µg mL^−1) at or above 0.2?
N

Can CCCCc1ccc(O)cc1O be said to have Absorbance (10 µg mL^−1) at or above 0.2?
Y
